B1: library; numbered along this chain (parent)
chain: MEVVDPQQLGMFTEGELMSVGMDTFIHRIDSTEVIYQPRRKRAKLIGKYLMGDLLGEGSYGKVKEVLDSETLCRRAVKILKKKKLRRIPNGEANVKKEIQLLRRLRHKNVIQLVDVLYNEEKQKMYMVMEYCVCGMQEMLDSVPEKRFPVCQAHGYFCQLIDGLEYLHSQGIVHKDIKPGNLLLTTGGTLKISDLGVAEALHPFAADDTCRTSQGSPAFQPPEIANGLDTFSGFKVDIWSAGVTLYNITTGLYPFEGDNIYKLFENIGKGSYAIPGDCGPPLSDLLKGMLEYEPAKRFSIRQIRQHSWFRKKHPPAEAPVPIPPSPDTKDRWRSMTVVPYLEDLHGADEDEDLFDIEDDIIYTQDFTVPGQVPEEEASHNGQRRGLPKAVCMNGTEAAQLSTKSRAEGRAPNPARKACSASSKIRRLSACKQQ

Variants of: B1
test description: STK11 functional score (HeLa growth suppression), rescaled enrichment; synonymous median = 1, nonsense median = 0 (normalised score)
applied conditions: with HeLa; variant type: missense
The entries below come with measured STK11 functional score values attached.
// response body must contain only the number

Quick one: STK11 functional score of G56W ?
-0.159

GET /values?readout=STK11 functional score&item= M139Y
1.53

For the variant shown here, T402V , give the reported STK11 functional score.
0.686

What does the record list as STK11 functional score for E317S ?
0.661

Endpoint output: STK11 functional score of T249V . Value?
1.56

Others:
So what does the record say about STK11 functional score for Q382S ?
1.5

Which STK11 functional score value is on record for K329S ?
0.673

Entry Q37A has what STK11 functional score?
1.34

Fill in: STK11 functional score of T212C is ___
1.32

So what's the measured STK11 functional score for this one? Q123L
0.679

I'd like to know its STK11 functional score. The variant in question is S428N
0.872

Field request: STK11 functional score | item: A218F
1.26

Can you share its STK11 functional score? I mean this variant: L201P
1.36

Could you share which STK11 functional score value was measured for E376C ?
1.46

Would you mind telling me what STK11 functional score value was observed for M125A ?
1.14

Could you tell me which STK11 functional score is on file for G135W ?
0.571

Item I29T has what recorded STK11 functional score?
0.53
